- experimental-protocol: Selectivity index, ratio of CC50 for cytotoxicity against African green monkey Vero cells assessed as reduction in cell viability to MIC for antibacterial activity against Staphylococcus aureus ATCC 29213 assessed as inhibition of bacterial growth
- Type: toxicity, cell-based
- measurement-parameters: read-out: Selectivity Index
recorded-endpoint: selectivity ratio
Numbers only.

// selectivity ratio lookup, key: COc1ccc(-c2ccn(-c3ccc(NC(=O)Nc4ccc(Cl)c(Cl)c4)cc3)n2)cc1OC
40

----------
- Test system: Staphylococcus aureus
- experimental-protocol: Antibacterial activity against Staphylococcus aureus ATCC 29213 assessed as inhibition of bacterial growth measured for 18 to 24 hrs by broth dilution method
- Format: functional
- measurement-parameters: time 18-24 hrs
Hi there, I'd appreciate the recorded MIC for every entry that follows.

structure-as-smiles: COc1ccc(-c2ccn(-c3ccc(NC(=S)Nc4cc(C(F)(F)F)cc(C(F)(F)F)c4)cc3)n2)cc1OC
MIC: 1 µg/mL

structure-as-smiles: O=C(NCc1ccccc1)Nc1ccc(-n2ccc(-c3cccnc3)n2)cc1
MIC: > 64 µg/mL

structure-as-smiles: O=C(Nc1ccc(-n2ccc(-c3ccc4ccccc4c3)n2)cc1)Nc1ccc(Cl)c(Cl)c1
MIC: > 64 µg/mL

structure-as-smiles: COc1ccc(-c2ccn(-c3ccc(NC(=O)Nc4ccc(Cl)c(C(F)(F)F)c4)cc3)n2)cc1OC
MIC: 2 µg/mL

structure-as-smiles: COc1ccc(-c2ccn(-c3ccc(NC(=S)Nc4ccc(Cl)cc4)cc3)n2)cc1OC
MIC: > 64 µg/mL

// each listed compound needs a value for MIC
1. O=C(Nc1ccc(-n2ccc(-c3cccnc3)n2)cc1)Nc1ccc(F)cc1F
2. COc1ccc(-c2ccn(-c3ccc(NC(=S)Nc4ccc(F)cc4)cc3)n2)cc1OC
3. COc1ccc(-c2ccn(-c3ccc(NC(=S)Nc4ccc(F)cc4F)cc3)n2)cc1OC
4. COc1ccc(-c2ccn(-c3ccc(NC(=O)NCc4ccccc4)cc3)n2)cc1OC

> 64 µg/mL
> 64 µg/mL
> 64 µg/mL
> 64 µg/mL

----------
- System: Mycobacterium tuberculosis
- experimental-protocol: Antimycobacterial activity against Mycobacterium tuberculosis H37Rv ATCC 27294 assessed as inhibition of bacterial growth incubated for 18 to 24 hrs by broth dilution method
- Type: functional
Mark each entry y if its MIC sits below 20 µg/mL, and n for all others.

Consider the worked cases shown below.
structure-as-smiles: Cc1ccc(-c2ccn(-c3ccc(NC(=O)Nc4ccc(F)cc4F)cc3)n2)cc1
target: Mycobacterium tuberculosis
class-label: n
//
structure-as-smiles: COc1cc(-c2ccn(-c3ccc(NC(=O)Nc4ccc(Cl)c(Cl)c4)cc3)n2)cc(OC)c1OC
target: Mycobacterium tuberculosis
class-label: n
//
structure-as-smiles: COc1cc(-c2ccn(-c3ccc(NC(=O)NCc4ccccc4)cc3)n2)cc(OC)c1OC
target: Mycobacterium tuberculosis
class-label: y
//
structure-as-smiles: COc1ccc(-c2ccn(-c3ccc(NC(=O)Nc4ccccc4C)cc3)n2)cc1OC
target: Mycobacterium tuberculosis
class-label: y
//
structure-as-smiles: COc1ccccc1NC(=O)Nc1ccc(-n2ccc(-c3ccc(OC)c(OC)c3)n2)cc1
target: Mycobacterium tuberculosis
class-label: n

Strictly below 20 µg/mL in MIC? COc1ccc(-c2ccn(-c3ccc(NC(=O)Nc4ccc(Cl)cc4Cl)cc3)n2)cc1OC
y

Try this molecule next: COc1ccc(-c2ccn(-c3ccc(NC(=S)Nc4ccc(Cl)cc4)cc3)n2)cc1OC
y

Try this molecule next: COc1ccc(-c2ccn(-c3ccc(NC(=O)Nc4cccc(Cl)c4)cc3)n2)cc1OC
y

Try this molecule next: COc1ccc(-c2ccn(-c3ccc(NC(=S)Nc4cccc(Cl)c4)cc3)n2)cc1OC
y

Try this molecule next: COc1ccc(-c2ccn(-c3ccc(NC(=S)Nc4cccc(Br)c4)cc3)n2)cc1OC
y

----------
- experimental-protocol: Metabolic stability in human liver microsome assessed as elimination rate constant at 1 uM preincubated for 5 mins followed by NADPH addition and measured after 60 mins by LC-MS/MS analysis
- Type: ADME
- measurement-parameters: liver microsomes, time 65 min
recorded-endpoint: k el at 1 h, 1 µM (s⁻¹)
Answers are plain numbers, in s⁻¹.

structure-as-smiles: COc1ccc(-c2ccn(-c3ccc(NC(=O)Nc4ccc(Cl)c(Cl)c4)cc3)n2)cc1OC
recorded-endpoint: k el at 1 h, 1 µM
test-value: 0.0001

Field: next compound
// k el at 1 h, 1 µM lookup, key: COc1ccc(-c2ccn(-c3ccc(NC(=O)Nc4ccc(F)cc4F)cc3)n2)cc1OC
8.33e-05

----------
- Tested on: Mycobacterium tuberculosis
- experimental-protocol: Antimycobacterial activity against Mycobacterium tuberculosis H37Rv ATCC 27294 assessed as inhibition of bacterial growth incubated for 18 to 24 hrs by broth dilution method
- Format: functional
recorded-endpoint: MIC

// each listed compound needs a value for MIC
1. O=C(Nc1ccc(-n2ccc(-c3ccc4ccccc4c3)n2)cc1)Nc1ccc(F)cc1F
2. COc1ccc(-c2cn(-c3ccc(NC(=O)Nc4ccc(F)cc4F)cc3)nn2)cc1OC
3. O=C(Nc1ccc(-n2ccc(-c3ccccc3)n2)cc1)Nc1ccc(F)cc1F

1: > 64 µg/mL; 2: 8 µg/mL; 3: > 64 µg/mL

----------
- Tested on: Staphylococcus aureus
- experimental-protocol: Antibacterial activity against methicillin/ceftriaxone/meropenem/gentamycin/vancomycin/teicoplanin resistant Staphylococcus aureus VRS 1 assessed as reduction in bacterial growth incubated for 18 to 24 hrs by broth dilution method
- Assay type: functional
- measurement-parameters: time 18-24 hrs
recorded-endpoint: MIC (µg/mL)
Give bare numbers, in µg/mL.

Example entries and their recorded answers appear below.
compound: C[C@@H](O)[C@H]1C(=O)N2C(C(=O)O)=C(S[C@@H]3CN[C@H](C(=O)N(C)C)C3)[C@H](C)[C@H]12 [MEROPENEM]
target: Staphylococcus aureus
result-units: µg/mL
test-value: 64

compound: C[C@H]1COc2c(N3CCN(C)CC3)c(F)cc3c(=O)c(C(=O)O)cn1c23 [LEVOFLOXACIN ANHYDROUS]
target: Staphylococcus aureus
result-units: µg/mL
test-value: 32

Field: next compound
// MIC lookup, key: COc1ccc(-c2ccn(-c3ccc(NC(=O)Nc4ccc(Cl)c(Cl)c4)cc3)n2)cc1OC
0.25

----------
- System: Mycobacterium tuberculosis
- experimental-protocol: Antimycobacterial activity against Mycobacterium tuberculosis H37Rv ATCC 27294 assessed as inhibition of bacterial growth incubated for 18 to 24 hrs by broth dilution method
- Format: functional
recorded-endpoint: MIC (µg/mL)
Give bare numbers, in µg/mL.

Example entries and their recorded answers appear below.
structure-as-smiles: COc1ccc(-c2ccn(-c3ccc(NC(=S)Nc4cc(C)cc(C)c4)cc3)n2)cc1OC
recorded-endpoint: MIC
test-value: 8
//
structure-as-smiles: COc1ccc(-c2ccn(-c3ccc(NC(=O)Nc4ccc(Cl)c(C(F)(F)F)c4)cc3)n2)cc1OC
recorded-endpoint: MIC
test-value: 4

// each listed molecule needs a value for MIC
1. COc1ccc(-c2ccn(-c3ccc(NC(=S)Nc4ccc(F)cc4)cc3)n2)cc1OC
2. COc1ccc(-c2ccn(-c3ccc(NC(=O)Nc4ccc(C)c(Cl)c4)cc3)n2)cc1OC
3. O=C(Nc1ccc(-n2ccc(-c3cccnc3)n2)cc1)Nc1ccc(Cl)c(Cl)c1
4. COc1ccc(-c2ccn(-c3ccc(NC(=O)NS(=O)(=O)c4ccccc4)cc3)n2)cc1OC
5. COc1cc(-c2ccn(-c3ccc(NC(=O)Nc4ccc(F)cc4F)cc3)n2)cc(OC)c1OC
6. O=C(Nc1ccc(-n2ccc(-c3ccccc3)n2)cc1)Nc1ccc(Cl)c(Cl)c1
7. NNC(=O)c1ccncc1

1: 2; 2: 4; 3: 16; 4: 16; 5: 8; 6: 64; 7: 0.03

----------
Hi there, I'd appreciate the recorded MIC for every entry that follows.
- Test system: Mycobacterium tuberculosis
- experimental-protocol: Antimycobacterial activity against Mycobacterium tuberculosis H37Rv ATCC 27294 assessed as inhibition of bacterial growth incubated for 18 to 24 hrs by broth dilution method
- Assay type: functional
Give bare numbers, in µg/mL.

structure-as-smiles: COc1ccc(-c2ccn(-c3ccc(NC(=S)Nc4ccc(C(F)(F)F)cc4)cc3)n2)cc1OC
MIC (µg/mL): 2
--
structure-as-smiles: COc1ccc(-c2ccn(-c3ccc(NC(=S)Nc4ccc(C)cc4)cc3)n2)cc1OC
MIC (µg/mL): 64
--
structure-as-smiles: COc1ccc(-c2ccn(-c3ccc(NC(=O)Nc4ccc(F)cc4F)cc3)n2)cc1
MIC (µg/mL): 8
--
structure-as-smiles: COc1ccc(-c2ccn(-c3ccc(NC(=S)Nc4ccc(F)c(Cl)c4)cc3)n2)cc1OC
MIC (µg/mL): 16
--
structure-as-smiles: O=C(Nc1ccc(-n2ccc(-c3ccc(Cl)cc3)n2)cc1)Nc1ccc(Cl)c(Cl)c1
MIC (µg/mL): 8

// MIC lookup, key: COc1ccc(-c2cn(-c3ccc(NC(=O)NCc4ccccc4)cc3)nn2)cc1OC
16

----------
- System: Mycobacterium tuberculosis
- experimental-protocol: Antimycobacterial activity against Mycobacterium tuberculosis H37Rv ATCC 27294 assessed as inhibition of bacterial growth incubated for 18 to 24 hrs by broth dilution method
- Assay type: functional
Mark each entry Fulfilled if its MIC sits below 20 µg/mL, and Not fulfilled for all others.

Strictly below 20 µg/mL in MIC? O=C(Nc1ccc(-n2ccc(-c3ccc(Cl)cc3Cl)n2)cc1)Nc1ccc(F)cc1F
Not fulfilled

Try this molecule next: O=C(NCc1ccccc1)Nc1ccc(-n2ccc(-c3ccc(Cl)cc3)n2)cc1
Not fulfilled

Try this molecule next: COc1ccc(-c2ccn(-c3ccc(NC(=O)Nc4c(C)cccc4C)cc3)n2)cc1OC
Not fulfilled

Try this molecule next: CCCCCCCNC(=S)Nc1ccc(-n2ccc(-c3ccc(OC)c(OC)c3)n2)cc1
Fulfilled

Try this molecule next: COc1cccc(NC(=S)Nc2ccc(-n3ccc(-c4ccc(OC)c(OC)c4)n3)cc2)c1
Fulfilled

Try this molecule next: COc1ccc(-c2ccn(-c3ccc(NC(=O)Nc4ccc(Cl)c(Cl)c4)cc3)n2)cc1
Not fulfilled

Try this molecule next: O=C(NCc1ccccc1)Nc1ccc(-n2ccc(-c3ccc(Cl)cc3Cl)n2)cc1
Not fulfilled

Try this molecule next: COc1ccc(-c2ccn(-c3ccc(NC(=O)Nc4cccc(F)c4)cc3)n2)cc1OC
Not fulfilled

Try this molecule next: COc1ccc(-c2ccn(-c3ccc(NC(=S)Nc4cc(C(F)(F)F)cc(C(F)(F)F)c4)cc3)n2)cc1OC
Fulfilled

Try this molecule next: O=C(NCc1ccccc1)Nc1ccc(-n2ccc(-c3cccnc3)n2)cc1
Fulfilled

Try this molecule next: O=C(Nc1ccc(-n2ccc(-c3ccc(Cl)cc3)n2)cc1)Nc1ccc(F)cc1F
Not fulfilled
